- subject_of_test: Syk (Homo sapiens (Human))
property_name: pIC50
The quantity pIC50 is defined as the negative base-10 logarithm of the molar concentration.

Short answer for COc1cc(Nc2cc(Oc3ccc(NC(=O)Nc4cc(C(C)(C)C)cc(NS(C)(=O)=O)c4OC)c4ccccc34)ccn2)ccc1C(=O)NCCOCCOCCOP(=O)(O)O : pIC50 was 8.10

====

- protocol: Pharmacokinetics and total colon distribution after single oral administration
- Type: in vivo, male C57BL/6 mice
- test_settings: male, C57BL/6, mouse, blood; mice, 0.5 h; Ex. 16 measured after oral 5 mg/kg of Ex. 19 (Na salt); read-out: Mean blood concentration
property_name: concentration at 0.5 h (ng/mL)
Please give a number only; it is taken to be in ng/mL.

The reported value for COc1cc(Nc2cc(Oc3ccc(NC(=O)Nc4cc(C(C)(C)C)cc(NS(C)(=O)=O)c4OC)c4ccccc34)ccn2)ccc1C(=O)NCCOCCOCCO [Example 16] in terms of concentration at 0.5 h is 1.3
